# Target entity: Sphingosine 1-phosphate receptor 2 (Homo sapiens)
# Experiment summary: Antagonist activity at S1P2 (unknown origin)
# Type: functional
Experimental readout: IC50 (nM)

Cc1nn(C)c2nc(NNC(=O)Nc3cc(Cl)nc(Cl)c3)cc(C(C)C)c12    17

----------
# Experiment summary: Efflux ratio of apparent permeability across apical to basolateral side in MDCK-MDR1 cells at 10 uM incubated for 1 hr by LC-MS/MS analysis
# Setup conditions: dog
Experimental readout: efflux ratio at 1 h, 10 µM

CC(C(=O)O)c1nn(Cc2cn3cc(OCC4CC4)c(C(F)(F)F)cc3n2)c2ccccc2c1=O (racemic)    3.7

----------
# Experiment summary: Thermodynamic solubility of compound at pH 7.4
# Setup conditions: buffer
Experimental readout: solubility thermodynamic

CC(C(=O)O)c1nn(Cc2cn3cc(OCC4CC4)c(C(F)(F)F)cc3n2)c2ccccc2c1=O (racemic)    221 µg/mL

----------
# Target entity: PXR (Homo sapiens, UniProt O75469)
# Sequence (O75469 whole entry): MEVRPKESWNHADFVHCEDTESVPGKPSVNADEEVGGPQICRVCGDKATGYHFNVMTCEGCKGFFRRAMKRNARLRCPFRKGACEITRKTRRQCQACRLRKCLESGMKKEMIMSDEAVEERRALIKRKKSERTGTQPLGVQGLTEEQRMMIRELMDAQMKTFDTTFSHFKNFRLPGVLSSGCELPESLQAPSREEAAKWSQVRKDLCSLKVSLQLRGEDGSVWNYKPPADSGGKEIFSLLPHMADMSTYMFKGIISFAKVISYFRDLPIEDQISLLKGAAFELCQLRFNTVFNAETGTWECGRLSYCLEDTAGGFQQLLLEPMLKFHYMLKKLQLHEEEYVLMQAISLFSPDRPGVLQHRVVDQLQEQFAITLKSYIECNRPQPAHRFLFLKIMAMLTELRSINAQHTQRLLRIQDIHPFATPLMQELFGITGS
# Experiment summary: Activation of PXR in human DPX2 cells at 10 uM incubated for 24 hrs relative to control
# Type: ADME, cell-based
# Setup conditions: read-out: Activity
Experimental readout: activity at 24 h, 10 µM (%)

C[C@H](C(=O)O)n1nc(Cn2cc3cc(OCC4CC4)c(Cl)cc3n2)c2ccccc2c1=O    5.7

----------
IC50 overview
# Target entity: Sphingosine 1-phosphate receptor 2 (Homo sapiens)
# Experiment summary: Displacement of sphingosine D-erythro [3-3H] I- phosphate from human S1P2 receptor expressed in CHO cell membrane
Experimental readout: IC50 (µM)

COc1cc(OC)c(NC(=O)Cc2cn(C)c3ccccc23)cc1Cl    3.79
COc1cc(OC)c(NC(=O)Cn2nc(CC(=O)O)c3ccccc32)cc1Cl    2.01
COc1cc(OC)c(NC(=O)Cc2cn(CC(=O)O)c3ccccc23)cc1Cl    10.7

----------
# Experiment summary: Volume of distribution at steady state in CD1 mouse at 1 mg/kg, iv measured up to 24 hrs by LC-MS/MS analysis
# Setup conditions: in vivo
Experimental readout: Vd at 24 h (L/kg)

CC(C(=O)O)c1nn(Cc2cn3cc(OCC4CC4)c(C(F)(F)F)cc3n2)c2ccccc2c1=O (racemic)    0.66

----------
# Experiment summary: Half life in CD1 mouse at 1 mg/kg, iv measured up to 24 hrs by LC-MS/MS analysis
# Setup conditions: in vivo
Experimental readout: half-life at 24 h (h)

CC(C(=O)O)c1nn(Cc2cn3cc(OCC4CC4)c(C(F)(F)F)cc3n2)c2ccccc2c1=O (racemic)    1.9

----------
# Target entity: Sphingosine 1-phosphate receptor 2 (Homo sapiens, UniProt O95136)
# Sequence (O95136 whole entry): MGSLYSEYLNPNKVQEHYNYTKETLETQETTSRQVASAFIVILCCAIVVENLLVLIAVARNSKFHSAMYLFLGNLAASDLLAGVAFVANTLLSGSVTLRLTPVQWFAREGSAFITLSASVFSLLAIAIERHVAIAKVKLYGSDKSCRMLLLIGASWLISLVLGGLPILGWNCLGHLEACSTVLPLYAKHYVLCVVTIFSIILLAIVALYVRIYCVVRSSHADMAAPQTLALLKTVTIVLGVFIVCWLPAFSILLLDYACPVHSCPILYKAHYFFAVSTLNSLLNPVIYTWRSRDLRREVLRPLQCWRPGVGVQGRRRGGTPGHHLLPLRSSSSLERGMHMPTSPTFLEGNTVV
# Experiment summary: Antagonist activity at human S1P2 receptor expressed in CHO cells assessed as inhibition of [35S]GTPgammaS binding
pIC50: −log10 of the molar value.
Outcome label depends on pIC50 relative to 5: at/above gives true (1), below gives false (0).

COc1cc(OC)c(NC(=O)Cc2cn(C)c3ccccc23)cc1Cl    false (0)
CC(C(=O)O)c1nn(Cc2cn3cc(OCC4CC4)c(C(F)(F)F)cc3n2)c2ccccc2c1=O (racemic)    true (1)
CCn1nc(CC(=O)Nc2ccc(OC(F)(F)F)c(Cl)c2)c2ccccc2c1=O    true (1)
COc1cc(OC)c(NC(=O)Cc2cn(CC(=O)O)c3ccccc23)cc1Cl    false (0)
CCOc1cc2cn(Cc3nn(CC(=O)O)c(=O)c4ccccc34)nc2cc1Cl    true (1)

----------
# Experiment summary: Unbound plasma concentration in CD1 mouse at 5 mg/kg, po or 1 mg/kg, iv measured up to 24 hrs by LC-MS/MS analysis
Experimental readout: fraction unbound at 24 h

CC(C(=O)O)c1nn(Cc2cn3cc(OCC4CC4)c(C(F)(F)F)cc3n2)c2ccccc2c1=O (racemic)    0.007

----------
# Target entity: UniProt:O95136
# Experiment summary: Antagonist activity at human S1P2 receptor expressed in CHO cells assessed as inhibition of calcium flux
pIC50: −log10 of the molar value.
Experimental readout: pIC50

CC(C(=O)O)c1nn(Cc2cn3cc(OCC4CC4)c(C(F)(F)F)cc3n2)c2ccccc2c1=O (racemic)    8.47
CCOc1cc2cn(Cc3nn(CC(=O)O)c(=O)c4ccccc34)nc2cc1Cl    6.83
CCn1nc(CC(=O)Nc2ccc(OC(F)(F)F)c(Cl)c2)c2ccccc2c1=O    6.70
COc1cc(OC)c(NC(=O)Cn2nc(CC(=O)O)c3ccccc32)cc1Cl    5.47

----------
# Target entity: Sphingosine 1-phosphate receptor 1 (Homo sapiens, UniProt P21453)
# Sequence (P21453 whole entry): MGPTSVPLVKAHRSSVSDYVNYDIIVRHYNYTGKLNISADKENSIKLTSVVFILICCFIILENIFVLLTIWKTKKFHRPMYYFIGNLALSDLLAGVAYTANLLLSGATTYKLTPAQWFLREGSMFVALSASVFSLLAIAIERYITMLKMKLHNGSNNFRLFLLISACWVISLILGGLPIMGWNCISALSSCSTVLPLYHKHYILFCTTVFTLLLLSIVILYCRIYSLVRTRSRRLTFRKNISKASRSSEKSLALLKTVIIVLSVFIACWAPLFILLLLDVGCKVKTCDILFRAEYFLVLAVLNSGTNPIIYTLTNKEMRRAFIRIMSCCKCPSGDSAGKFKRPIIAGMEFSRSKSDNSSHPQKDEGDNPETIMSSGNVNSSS
# Experiment summary: Antagonist activity at human S1P1 receptor expressed in CHO cells assessed as inhibition of calcium flux
pIC50: −log10 of the molar value.
Experimental readout: pIC50

COc1cc(OC)c(NC(=O)Cc2cn(C)c3ccccc23)cc1Cl    < 4.70
COc1cc(OC)c(NC(=O)Cn2nc(CC(=O)O)c3ccccc32)cc1Cl    < 4.70
COc1cc(OC)c(NC(=O)Cc2nn(CC(=O)O)c(=O)c3ccccc23)cc1Cl    < 4.70
COc1cc(OC)c(NC(=O)Cc2cn(CC(=O)O)c3ccccc23)cc1Cl    < 4.70

----------
The compounds listed here are annotated with their chromatographic logD.
# Experiment summary: Lipophilicity, logD of the compound at pH 7.4 by chromatographic method
# Setup conditions: buffer
Experimental readout: chromatographic logD

COc1ccc(NC(=O)Cc2nn(CC(=O)O)c(=O)c3ccccc23)c(OC)c1    1.13
COc1cc(OC)c(NC(=O)Cc2cn(CC(=O)O)c3ccccc23)cc1Cl    2.13
COc1cc(OC)c(NC(=O)Cc2cn(C)c3ccccc23)cc1Cl    5.91
CC(C(=O)O)c1nn(Cc2cn3cc(OCC4CC4)c(C(F)(F)F)cc3n2)c2ccccc2c1=O (racemic)    2.99
CCn1nc(CC(=O)Nc2ccc(OC(F)(F)F)c(Cl)c2)c2ccccc2c1=O    5.42
COc1cc(OC)c(NC(=O)Cn2nc(CC(=O)O)c3ccccc32)cc1Cl    1.86

----------
Below are IC50 values measured for Sphingosine 1-phosphate receptor 2 (Homo sapiens).
Experimental readout: IC50 (nM)

CCOc1cc2cn(Cc3nn(CC(=O)O)c(=O)c4ccccc34)nc2cc1Cl    23
CC(C(=O)O)c1nn(Cc2cn3cc(OCC4CC4)c(C(F)(F)F)cc3n2)c2ccccc2c1=O (racemic)    5

----------
Measured pIC50 by item
# Target entity: Sphingosine 1-phosphate receptor 2 (Homo sapiens)
# Experiment summary: Antagonist activity at human S1P2 receptor expressed in CHO cells assessed as inhibition of calcium flux
pIC50: −log10 of the molar value.
Experimental readout: pIC50

COc1cc(OC)c(NC(=O)Cc2cn(C)c3ccccc23)cc1Cl    < 5.09
COc1cc(OC)c(NC(=O)Cc2cn(CC(=O)O)c3ccccc23)cc1Cl    < 5.18
COc1ccc(NC(=O)Cc2nn(CC(=O)O)c(=O)c3ccccc23)c(OC)c1    < 4.70
